# Tested on: LoVo-Dox
# measurement_protocol: SRB colorimetric assay of cell growth and viability, LoVo-Dox
# Format: cell-based, human
# measurement_conditions: LOVO-DOX; 48 hours exposure; read-out: LC50 LOVO-DOX
# From the text: The finality of this assay is to interrupt the growth of a “in vitro” tumor cell culture by means a continued exhibition of the cells to the sample to be testing. A colorimetric type of assay, using sulforhodamine B (SRB) reaction has been adapted for a quantitative measurement of cell growth and viability [following the technique described by Philip Skehan, et al. (1990), New colorimetric cytotoxicity assay for anticancer drug screening, J. Natl. Cancer Inst., 82:1107-1112]. […]
Where a SMILES comes first, the peptide text is derived from it. Bridges are numbered along the chain shown (N, C = ends). [ ]: non-standard residue; d: D form. The star is where a group is joined. 2Nal = N[C@@H](Cc1ccc2ccccc2c1)C(=O)O; d(aIle) = CC[C@H](C)[C@@H](N)C(=O)O; d(aThr) = C[C@@H](O)[C@@H](N)C(=O)O; Hexanoyl(5-Me) = CC(C)CCCC(=O)*; Orn = NCCC[C@H](N)C(=O)O; Dhb = C/C=C(\N)C(=O)O
quantity_kind: CC50 (nM)

INSERT INTO assay_data (molecule, quantity_kind, result_number) VALUES
  ('C/C=C1\NC(=O)[C@H](Cc2ccc3ccccc3c2)NC(=O)[C@@H](C(C)C)NC(=O)[C@@H]([C@@H](C)CC)NC(=O)[C@H](NC(=O)[C@H](NC(=O)[C@H](CCCN)NC(=O)[C@H]2CCCN2C(=O)[C@H](NC(=O)[C@@H](NC(=O)[C@@H](NC(=O)[C@H](NC(=O)CCCC(C)C)C(C)C)[C@@H](C)O)C(C)C)C(C)C)[C@@H](C)CC)[C@@H](C)OC(=O)[C@H](C(C)C)NC1=O [Compound 85, [Nal^3]-KF] ({Hexanoyl(5-Me)}-[dV]TV[dV][dP][Orn][d(aIle)][d(aThr)][d(aIle)][dV][2Nal][Dhb]V; ester 8-C)', 'CC50', 847);
